- Tested on: HT-29
- Method: Cell cycle arrest in human HT-29 cells assessed as accumulation of cells at S phase at 100 nM after 24 hrs by propidium iodide staining-based flow cytometric analysis (reference value: 12.3 +/- 0.4%)
- Type: functional
Use Satisfied when the recorded Activity is no lower than 20%; use Not satisfied when it is lower.

{"Molecule": "N#CC1=C(N)Oc2c(ccc3ccccc23)C1c1cccc([N+](=O)[O-])c1 (stereo not drawn)", "Category": "Satisfied"}
{"Molecule": "N#CC1=C(N)Oc2c(cc(Cl)c3ccccc23)C1c1cccc(C#N)c1 (stereo not drawn)", "Category": "Not satisfied"}
{"Molecule": "COc1c(Br)cc(C2C(C#N)=C(N)Oc3c2ccc2ccccc32)cc1Br (stereo not drawn)", "Category": "Not satisfied"}
{"Molecule": "N#CC1=C(N)Oc2c(ccc3ccccc23)C1c1cccc(C#N)c1 (stereo not drawn)", "Category": "Satisfied"}
{"Molecule": "N#CC1=C(N)Oc2c(ccc3ccccc23)C1c1cc(F)cc(F)c1 (stereo not drawn)", "Category": "Satisfied"}
{"Molecule": "N#CC1=C(N)Oc2c(cc(Cl)c3ccccc23)C1c1cccc([N+](=O)[O-])c1 (stereo not drawn)", "Category": "Satisfied"}

Proceed to the following item.
Assess whether reported Activity for N#CC1=C(N)Oc2c(ccc3ccccc23)C1c1ccc(Cl)c(F)c1 (stereo not drawn) sits at 20% or higher. Not satisfied

---

- System: Chorioallantoic membrane
- Method: Antiangiogenic activity in Leghorn chicken embryo chorioallantoic membrane assessed as induction of hemorrhages at 5 nmol after 6 hrs by light microscopic analysis
- Assay type: functional, tissue-based
- Details: Gallus gallus
The source made the active and inactive calls. The calls are words filed in the database; no cut-off is given here.
Choose one outcome from this list and give only that: active, inactive

Below are worked cases with known answers.
{"Compound": "N#CC1=C(N)Oc2c(ccc3ccccc23)C1c1cc(F)cc(F)c1 (stereo unspecified)", "Measured Target": "Chorioallantoic membrane", "Category": "active"}
{"Compound": "N#CC1=C(N)Oc2c(cc(Cl)c3ccccc23)C1c1cccc(C#N)c1 (stereo unspecified)", "Measured Target": "Chorioallantoic membrane", "Category": "active"}
{"Compound": "N#CC1=C(N)Oc2c(cc(Cl)c3ccccc23)C1c1cccc([N+](=O)[O-])c1 (stereo unspecified)", "Measured Target": "Chorioallantoic membrane", "Category": "active"}
{"Compound": "COc1c(Br)cc(C2C(C#N)=C(N)Oc3c2ccc2ccccc32)cc1Br (stereo unspecified)", "Measured Target": "Chorioallantoic membrane", "Category": "inactive"}
{"Compound": "N#CC1=C(N)Oc2c(ccc3ccccc23)C1c1cccc(C#N)c1 (stereo unspecified)", "Measured Target": "Chorioallantoic membrane", "Category": "active"}

For the next question, use this compound.
Hey, what did the test say about N#CC1=C(N)Oc2c(cc(Cl)c3ccccc23)C1c1cc(F)cc(F)c1 (stereo unspecified) ? active

---

- Test system: A2780
- Method: Antiproliferative activity against human A2780 cells after 72 hrs by SRB assay
- Format: functional, cell-based
- Details: A2780, 72 h
pIC50: −log10 of the molar value.
# label = Criterion met if pIC50 >= 6 else Criterion not met

// below: answered compounds
{"Compound": "COc1c(Cl)cc(C2C(C#N)=C(N)Oc3c2ccc2ccccc32)cc1Cl (stereo not given)", "Category": "Criterion met"}
{"Compound": "N#CC1=C(N)Oc2c(ccc3ccccc23)C1c1ccc(S(F)(F)(F)(F)F)cc1 (stereo not given)", "Category": "Criterion not met"}
{"Compound": "N#CC1=C(N)Oc2c(ccc3ccccc23)C1c1cccc(C#N)c1 (stereo not given)", "Category": "Criterion met"}
{"Compound": "N#CC1=C(N)Oc2c(ccc3ccccc23)C1c1cccc(S(F)(F)(F)(F)F)c1 (stereo not given)", "Category": "Criterion met"}
{"Compound": "N#CC1=C(N)Oc2c(cc(Cl)c3ccccc23)C1c1cccc(C#N)c1 (stereo not given)", "Category": "Criterion met"}
{"Compound": "COc1cc(C2C(C#N)=C(N)Oc3c2ccc2ccccc32)ccc1OCc1ccccc1 (stereo not given)", "Category": "Criterion not met"}

Now let's try a different one.
Is the recorded value of pIC50 equal to or greater than 6 for this compound? CSc1ccc(C2C(C#N)=C(N)Oc3c2ccc2ccccc32)cc1 (stereo not given) Criterion met

---

Please go through the items and note down their IC50.
- Test system: A2780
- Method: Antiproliferative activity against human A2780 cells after 72 hrs by SRB assay
- Assay type: functional, cell-based
- Details: A2780, 72 h
One number for each entry, in µM.

{"Molecule": "N#CC1=C(N)Oc2c(cc(Cl)c3ccccc23)C1c1cccc(Br)c1 (stereo not given)", "IC50 / µM": 0.155}
{"Molecule": "N#CC1=C(N)Oc2c(cc(Cl)c3ccccc23)C1c1ccc(C#N)cc1 (stereo not given)", "IC50 / µM": 1.44}
{"Molecule": "N#CC1=C(N)Oc2c(ccc3ccccc23)C1c1ccc(Cl)c(F)c1 (stereo not given)", "IC50 / µM": 0.0485}
{"Molecule": "N#CC1=C(N)Oc2c(cc(Cl)c3ccccc23)C1c1cc(F)cc(F)c1 (stereo not given)", "IC50 / µM": 0.104}
{"Molecule": "COc1c(Br)cc(C2C(C#N)=C(N)Oc3c2cc(Cl)c2ccccc32)cc1Br (stereo not given)", "IC50 / µM": 0.16}

Please report IC50 for every entry that follows.
1. N#CC1=C(N)Oc2c(ccc3ccccc23)C1c1cccc([N+](=O)[O-])c1 (stereo not given)
2. COc1c(Br)cc(C2C(C#N)=C(N)Oc3c2ccc2ccccc32)cc1Br (stereo not given)
3. N#CC1=C(N)Oc2c(ccc3ccccc23)C1c1cc(F)cc(F)c1 (stereo not given)
4. COc1c(I)cc(C2C(C#N)=C(N)Oc3c2ccc2ccccc32)cc1I (stereo not given)
5. N#CC1=C(N)Oc2c(cc(Cl)c3ccccc23)C1c1cccc([N+](=O)[O-])c1 (stereo not given)

1. 0.0187
2. 0.0121
3. 0.017
4. 0.0164
5. 0.0611

---

- Test system: A2780
- Method: Antiproliferative activity against human A2780 cells after 72 hrs by SRB assay
- Assay type: functional, cell-based
- Details: A2780, 72 h
Result Type: IC50 (nM)
One number for each entry, in nM.

Example entries and their recorded answers appear below.
{"Compound": "N#CC1=C(N)Oc2c(cc(Cl)c3ccccc23)C1c1ccccc1Cl (stereo not drawn)", "Unit String": "nM", "IC50": 912}
{"Compound": "CSc1ccc(C2C(C#N)=C(N)Oc3c2cc(Cl)c2ccccc32)cc1 (stereo not drawn)", "Unit String": "nM", "IC50": 1070}

For the next question, use this compound.
For the compound N#CC1=C(N)Oc2c(ccc3ccccc23)C1c1ccc(C#N)cc1 (stereo not drawn) , what IC50 is on record? 759
